Tgt: human GLP-1 receptor (human, UniProt P43220 24-463)
Sequence (P43220 24-463): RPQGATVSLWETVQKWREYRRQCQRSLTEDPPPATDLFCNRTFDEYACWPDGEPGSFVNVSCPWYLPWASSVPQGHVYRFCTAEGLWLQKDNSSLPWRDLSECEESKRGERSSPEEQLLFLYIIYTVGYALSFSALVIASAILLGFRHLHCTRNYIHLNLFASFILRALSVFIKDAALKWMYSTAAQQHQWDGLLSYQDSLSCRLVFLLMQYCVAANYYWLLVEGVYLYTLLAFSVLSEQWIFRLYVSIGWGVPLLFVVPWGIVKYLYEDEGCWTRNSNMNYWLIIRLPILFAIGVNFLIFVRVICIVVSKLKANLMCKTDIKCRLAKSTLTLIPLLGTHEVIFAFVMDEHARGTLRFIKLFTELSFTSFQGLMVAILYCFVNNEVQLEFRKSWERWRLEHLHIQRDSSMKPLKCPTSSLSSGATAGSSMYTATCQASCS
Assay details: cell-based or functional assay
Starred links: 1 amine or outer side, 2 acyl side, 3 side chain; linkers in the order of their positions; H or OH if unused. Non-standard residues stand in square brackets, D forms with d. No end group written: not given here. *: point of attachment. ACPP = 2-amino-5-(3-chlorophenyl)pentanoic acid, O=C([C@H](CCCc1cccc(Cl)c1)N[*:1])[*:2]; 2CF3‑APPA = 2-amino-5-(2-(trifluoromethyl)phenyl)pentanoic acid; Bip(2'-Et-4'-OMe) = CCc1cc(OC)ccc1-c1ccc(C[C@H](N)C(=O)O)cc1; 2F‑APPA = 2-amino-5-(2-fluorophenyl)pentanoic acid; αMePhe(2-F) = C[C@](N)(Cc1ccccc1F)C(=O)O; hhPhe = N[C@@H](CCCc1ccccc1)C(=O)O; aThr = C[C@H](O)[C@H](N)C(=O)O; αMeP = C[C@@]1(C(=O)O)CCCN1; CNB = not defined here; Aib = CC(C)(N)C(=O)O; Moc = COC(=O)*
Observed property: cAMP release, % activity, 1 µM (%)

Binder	Observed property	Observed measurement
H[Aib][CNB]GTFTSD[Bip(2'-Et-4'-OMe)][hhPhe] (reading uncertain) [Seq. ID. No. 29: H-Aib-(CNB)-GTFTSD-Bip(OMe)-(APPA)]	cAMP release, % activity, 1 µM	99
H[αMeP]QGTFTSD[Bip(2'-Et-4'-OMe)][ACPP] [Seq. ID. No. 11: H-(α-Me-Pro)-QGTFTSD-Bip(OMe)-(ACPP)]	cAMP release, % activity, 1 µM	99
Moc-H[Aib]QGT[αMePhe(2-F)]TSD[Bip(2'-Et-4'-OMe)][2F‑APPA] (also: reduced (CH2) bonds between 9-10 and 10-11) [Seq. ID. No. 196: CH3OCO-H-Aib-QGT-(α-Me-2F-Phe)-TSD-(CH2)-BiP(OMe)-(CH2)-(2F-APPA)]	cAMP release, % activity, 1 µM	96
H[Aib]QG[aThr][αMePhe(2-F)][aThr]SD[Bip(2'-Et-4'-OMe)][2F‑APPA] (also: reduced (CH2) bonds Z9-Z10 and Z10-Z11) [Seq. ID. No. 203: H-Aib-QG-T(allo)-(α-Me-2F-Phe)-T(allo)-SD-(CH2)-Bip(OMe)-(CH2)-(2F-APPA)]	cAMP release, % activity, 1 µM	99
HSQGTFTSD[Bip(2'-Et-4'-OMe)][2CF3‑APPA] [Seq. ID. No. 47: HSQGTFTSD-Bip(OMe)-(2CF3-APPA)]	cAMP release, % activity, 1 µM	99
